From: ChEMBL document CHEMBL1148293

targetOfAssay: Mu-type opioid receptor (Cavia porcellus)
Sequence (P97266 whole entry): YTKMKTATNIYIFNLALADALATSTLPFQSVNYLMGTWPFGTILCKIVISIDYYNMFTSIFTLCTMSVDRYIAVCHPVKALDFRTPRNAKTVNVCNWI
pKi: −log10 of the molar value.
# label = Condition met if pKi >= 8 else Condition not met

1) O=C1c2ccc(O)cc2[C@@]23CCCC[C@H]2[C@@H]1N(CCc1ccccc1)CC3 : Condition met
2) O=C(O)c1ccc2c(c1)[C@@]13CCCC[C@H]1[C@@H](C2=O)N(CC1CCC1)CC3 : Condition not met
3) CN1CC[C@]23CCCC[C@H]2[C@H]1Cc1ccc(CN)cc13 : Condition not met
4) O=C1c2ccc(O)cc2[C@@]23CCCC[C@H]2[C@@H]1N(C[C@@H]1CCCO1)CC3 : Condition met
5) CN1CC[C@]23CCCC[C@H]2[C@H]1C(=O)c1ccc(O)cc13 : Condition not met
6) O=C1c2ccc(O)cc2[C@@]23CCCC[C@H]2[C@@H]1N(CCF)CC3 : Condition not met
7) NC(=O)c1ccc2c(c1)[C@@]13CCCC[C@H]1[C@@H](C2)N(CC1CC1)CC3 : Condition met
8) CC(C)=CCN1CC[C@]23CCCC[C@H]2[C@H]1C(=O)c1ccc(O)cc13 : Condition not met
9) O=C1c2ccc(O)cc2[C@@]23CCCC[C@H]2[C@@H]1NCC3 : Condition not met

* * *

targetOfAssay: Opioid receptors; delta & kappa (UniProt P41145+P41143)
Sequence (P41143 whole entry, looked up): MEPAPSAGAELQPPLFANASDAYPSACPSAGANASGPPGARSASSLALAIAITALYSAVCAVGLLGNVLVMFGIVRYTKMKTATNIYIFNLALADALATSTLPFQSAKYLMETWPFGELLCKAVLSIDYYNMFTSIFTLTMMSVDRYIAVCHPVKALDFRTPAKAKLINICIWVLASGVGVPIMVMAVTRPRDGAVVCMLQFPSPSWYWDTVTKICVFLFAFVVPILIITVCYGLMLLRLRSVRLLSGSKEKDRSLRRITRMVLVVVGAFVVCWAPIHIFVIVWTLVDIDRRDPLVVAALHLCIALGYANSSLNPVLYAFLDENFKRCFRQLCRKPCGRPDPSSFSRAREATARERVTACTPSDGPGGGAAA
Sequence (P41145 whole entry, looked up): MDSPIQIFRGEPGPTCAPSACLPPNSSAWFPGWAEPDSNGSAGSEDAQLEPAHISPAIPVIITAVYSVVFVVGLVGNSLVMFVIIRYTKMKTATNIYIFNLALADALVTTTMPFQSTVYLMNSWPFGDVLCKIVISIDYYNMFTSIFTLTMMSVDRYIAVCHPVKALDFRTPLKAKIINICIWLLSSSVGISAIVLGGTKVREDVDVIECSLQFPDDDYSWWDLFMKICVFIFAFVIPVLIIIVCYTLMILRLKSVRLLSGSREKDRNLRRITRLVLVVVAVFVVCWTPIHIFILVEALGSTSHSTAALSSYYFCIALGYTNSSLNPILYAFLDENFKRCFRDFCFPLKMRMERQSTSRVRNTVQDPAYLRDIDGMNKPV
testName: Selectivity ratio expressed as Ki of delta opioid receptor to that of kappa opioid receptor.
Assay type: protein assay
experimentalConditions: Cavia porcellus
Could you mark each record satisfied if its Selectivity falls strictly under 40, and not satisfied if it equals or exceeds it?

1. CN1CC[C@]23CCCC[C@H]2[C@H]1C(=O)c1ccc(O)cc13 : satisfied
2. CN1CC[C@]23CCCC[C@H]2[C@H]1Cc1ccc(N)cc13 : satisfied
3. O=C1c2ccc(O)cc2[C@@]23CCCC[C@H]2[C@@H]1NCC3 : not satisfied
4. N#Cc1ccc2c(c1)[C@@]13CCCC[C@H]1[C@@H](C2)N(CC1CCC1)CC3 : not satisfied
5. CN1CC[C@]23CCCC[C@H]2[C@H]1Cc1ccc(O)cc13 : satisfied
6. C#CCN1CC[C@]23CCCC[C@H]2[C@H]1C(=O)c1ccc(O)cc13 : satisfied
7. Nc1ccc2c(c1)[C@@]13CCCC[C@H]1[C@@H](C2)N(CC1CCC1)CC3 : not satisfied
8. NC(=O)c1ccc2c(c1)[C@@]13CCCC[C@H]1[C@@H](C2)N(CC1CC1)CC3 : satisfied
9. O=C1c2ccc(O)cc2[C@@]23CCCC[C@H]2[C@@H]1N(C[C@@H]1CCCO1)CC3 : satisfied
10. Oc1ccc2c(c1)[C@@]13CCCC[C@H]1[C@@H](C2)N(CC1CCC1)CC3 : not satisfied
11. COc1ccc2c(c1)[C@@]13CCCC[C@H]1[C@H](NCC3)C2=O : satisfied
12. O=C1c2ccc(OCC3CCC3)cc2[C@@]23CCCC[C@H]2[C@@H]1N(CC1CCC1)CC3 : satisfied
13. O=C1c2ccc(-c3nn[nH]n3)cc2[C@@]23CCCC[C@H]2[C@@H]1N(CC1CCC1)CC3 : satisfied

* * *

targetOfAssay: Opioid receptors; delta & kappa (UniProt P41145+P41143)
testName: Selectivity ratio expressed as Ki of delta opioid receptor to that of kappa opioid receptor.
Type: protein assay
experimentalConditions: Cavia porcellus
Known Selectivity of a selection of molecules
readoutLabel: Selectivity

1) NC(=O)c1ccc2c(c1)[C@@]13CCCC[C@H]1[C@@H](C2=O)N(CC1CCC1)CC3 : 19
2) O=C(Nc1ccc2c(c1)[C@@]13CCCC[C@H]1[C@@H](C2=O)N(CC1CCC1)CC3)c1ccccc1 : 49
3) CC(C)=CCN1CC[C@]23CCCC[C@H]2[C@H]1C(=O)c1ccc(O)cc13 : 150
4) O=C(O)c1ccc2c(c1)[C@@]13CCCC[C@H]1[C@@H](C2=O)N(CC1CCC1)CC3 : 14
5) Nc1ccc2c(c1)[C@@]13CCCC[C@H]1[C@@H](C2=O)N(CC1CCC1)CC3 : 130
6) CN1CC[C@]23CCCC[C@H]2[C@H]1Cc1ccc(C(N)=O)cc13 : 3.3
7) O=C1c2ccc(O)cc2[C@@]23CCCC[C@H]2[C@@H]1N(CC1CCC1)CC3 : 540
8) NCc1ccc2c(c1)[C@@]13CCCC[C@H]1[C@@H](C2)N(CC1CCC1)CC3 : 48
9) O=C1c2ccc(O)cc2[C@@]23CCCC[C@H]2[C@@H]1N(CC1CC1)CC3 : 6
10) O=C1c2ccc(O)cc2[C@@]23CCCC[C@H]2[C@@H]1N(CCc1ccccc1)CC3 : 1.3
11) Nc1ccc2c(c1)[C@@]13CCCC[C@H]1[C@@H](C2)N(CC1CC1)CC3 : 830
